# ASSAY_REMARKS: The compound was tested for its inhibitory activity against bacterial neuraminidase
# Set-up: species or system Clostridium perfringens
pKi: −log10 of the molar value.
Entries and their measured pKi follow.
MEASURE_NAME: pKi

COMPOUND: CC(=O)N[C@H]1C(C(O)C(O)CO)O[C@](C(=O)O)(C(C)(C)O)C[C@H]1O (stereo not given in full)
BOUND_OPERATOR: =
VALUE_REPORTED: 4.54
--
COMPOUND: CC(=O)NC1C(O)CC(C(=O)O)([C@H](O)C2C(O)C(CO)OC(OC(=O)c3ccccc3)C2O)OC1C(O)C(O)CO (stereo not given in full)
BOUND_OPERATOR: =
VALUE_REPORTED: 3.64
--
COMPOUND: CC(=O)NC1C(O)CC(C(=O)O)([C@@H](O)C2C(O)C(CO)OC(OC(=O)c3ccccc3)C2O)OC1C(O)C(O)CO (stereo not given in full)
BOUND_OPERATOR: =
VALUE_REPORTED: 3.96
--
COMPOUND: CCCCCCCC(O)[C@]1(C(=O)O)C[C@@H](O)[C@@H](NC(C)=O)C(C(O)C(O)CO)O1 (stereo not given in full)
BOUND_OPERATOR: =
VALUE_REPORTED: 4.80
--
COMPOUND: COC1OC(CO)C(O)C([C@@H](O)C2(C(=O)O)CC(O)C(NC(C)=O)C(C(O)C(O)CO)O2)C1O (stereo not given in full)
BOUND_OPERATOR: <
VALUE_REPORTED: 3.00
